Biological target: VLA-4 (Homo sapiens, UniProt P05556+P13612)
Sequence (P13612 34-1032): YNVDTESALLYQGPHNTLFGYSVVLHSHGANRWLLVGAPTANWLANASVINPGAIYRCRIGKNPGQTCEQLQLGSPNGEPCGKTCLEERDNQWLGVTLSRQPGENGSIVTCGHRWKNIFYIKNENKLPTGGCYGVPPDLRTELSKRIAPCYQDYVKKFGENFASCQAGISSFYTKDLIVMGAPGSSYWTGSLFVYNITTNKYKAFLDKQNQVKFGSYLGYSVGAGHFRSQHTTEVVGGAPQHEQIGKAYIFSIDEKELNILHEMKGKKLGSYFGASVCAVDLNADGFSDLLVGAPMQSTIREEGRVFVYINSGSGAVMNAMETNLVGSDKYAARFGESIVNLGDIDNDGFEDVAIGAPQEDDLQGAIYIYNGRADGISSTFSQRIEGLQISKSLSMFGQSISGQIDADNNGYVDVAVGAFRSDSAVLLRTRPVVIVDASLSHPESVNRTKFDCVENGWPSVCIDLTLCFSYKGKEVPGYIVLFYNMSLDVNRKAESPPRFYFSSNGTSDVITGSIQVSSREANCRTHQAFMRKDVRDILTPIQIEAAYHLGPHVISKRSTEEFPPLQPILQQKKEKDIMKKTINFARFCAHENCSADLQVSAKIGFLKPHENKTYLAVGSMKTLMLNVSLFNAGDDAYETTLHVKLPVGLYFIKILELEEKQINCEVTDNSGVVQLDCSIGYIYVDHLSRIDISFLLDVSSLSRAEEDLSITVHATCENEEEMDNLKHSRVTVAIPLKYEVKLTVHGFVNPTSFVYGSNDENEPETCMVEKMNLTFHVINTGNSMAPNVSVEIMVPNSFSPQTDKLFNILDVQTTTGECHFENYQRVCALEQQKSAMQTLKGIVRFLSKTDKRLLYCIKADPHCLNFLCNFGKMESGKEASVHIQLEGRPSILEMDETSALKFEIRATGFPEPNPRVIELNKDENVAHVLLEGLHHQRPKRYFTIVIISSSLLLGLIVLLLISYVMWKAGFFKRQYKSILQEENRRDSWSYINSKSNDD
Sequence (P05556 21-798): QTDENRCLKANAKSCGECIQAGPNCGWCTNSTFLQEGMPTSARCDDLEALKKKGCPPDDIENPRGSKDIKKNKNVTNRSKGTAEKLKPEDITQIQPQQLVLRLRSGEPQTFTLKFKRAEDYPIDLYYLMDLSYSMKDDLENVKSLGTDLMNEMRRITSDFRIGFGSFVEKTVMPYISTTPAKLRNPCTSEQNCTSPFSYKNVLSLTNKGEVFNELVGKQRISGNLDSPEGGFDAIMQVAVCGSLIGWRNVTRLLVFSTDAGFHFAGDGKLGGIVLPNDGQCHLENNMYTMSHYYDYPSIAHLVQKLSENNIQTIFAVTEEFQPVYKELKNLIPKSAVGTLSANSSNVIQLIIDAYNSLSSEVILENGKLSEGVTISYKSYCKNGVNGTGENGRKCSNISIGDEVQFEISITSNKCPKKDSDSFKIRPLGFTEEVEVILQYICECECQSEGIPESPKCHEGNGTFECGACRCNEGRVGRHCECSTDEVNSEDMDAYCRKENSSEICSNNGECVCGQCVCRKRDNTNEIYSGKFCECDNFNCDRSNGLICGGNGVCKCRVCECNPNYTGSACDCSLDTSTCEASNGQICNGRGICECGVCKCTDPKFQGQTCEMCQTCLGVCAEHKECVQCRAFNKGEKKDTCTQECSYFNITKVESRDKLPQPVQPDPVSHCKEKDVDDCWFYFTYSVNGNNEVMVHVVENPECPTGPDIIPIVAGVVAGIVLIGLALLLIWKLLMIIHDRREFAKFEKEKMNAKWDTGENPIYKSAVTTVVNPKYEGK
Assay: In vitro binding assay: 51Cr-labeled Jurkat cells to solid phase-bound CS-1 peptide (SEQ ID NO:5)
Format: cell-based
Parameters: inflammatory cells that contain the VLA-4 receptor [Jurkat cells; host or cells: Jurkat cells (human T lymphoblastic line)
Conditions: Table 1; normalized IC50 potency relative to standard peptide SEQ ID NO:6 (=1); Jurkat cells, CS-1
Positions of bridges follow the written chain, without caps; N, C: chain ends. Non-standard residues stand in square brackets, D forms with d. Residues, ends and D or L forms follow the SMILES beside them. *: point of attachment. Pen = CC(C)(S)[C@H](N)C(=O)O; PhAc = O=C(Cc1ccccc1)*
ATTRIBUTE MEASURED: Relative Potency

CC(C)C[C@@H]1NC(=O)[C@H](Cc2ccccc2)NC(=O)[C@@H](N)CSSC[C@@H](C(N)=O)NC(=O)[C@H]([C@@H](C)O)NC(=O)[C@H](CO)NC(=O)[C@@H]2CCCN2C(=O)[C@H](Cc2ccccc2)NC(=O)[C@H](CC(=O)O)NC1=O [SEQ ID NO:15, CFLDFPSTC-NH2] (H-CFLDFPSTC-NH2; disulfide 1-9): 81
CC1(C)SSC[C@@H](C(N)=O)NC(=O)[C@H](Cc2ccccc2)NC(=O)[C@H](CC(=O)O)NC(=O)[C@H]1NC(=O)Cc1ccccc1 [SEQ ID NO:14, .phi.AcJDFC-NH2] (PhAc-[Pen]DFC-NH2; disulfide 1-4): 94
CC(=O)N[C@@H](Cc1ccccc1)C(=O)N[C@H]1CSSC[C@@H](C(N)=O)NC(=O)[C@H](Cc2ccccc2)NC(=O)[C@H](CC(=O)O)NC1=O [SEQ ID NO:17, AcFCDFC-NH2] (Ac-FCDFC-NH2; disulfide 2-5): 52
CC(C)C[C@@H]1NC(=O)[C@H](Cc2ccccc2)NC(=O)[C@H](CCC(=O)O)NC(=O)[C@@H]2CCCN2C(=O)[C@@H](N)CSSC[C@@H](C(N)=O)NC(=O)[C@@H]2CCCN2C(=O)[C@H](Cc2ccccc2)NC(=O)[C@H](CC(=O)O)NC1=O [SEQ ID NO:16, CPEFLDFPC-NH2] (H-CPEFLDFPC-NH2; disulfide 1-9): 56
CC(C)C[C@@H]1NC(=O)[C@H](Cc2ccccc2)NC(=O)[C@@H](N)CSSC[C@@H](C(N)=O)NC(=O)[C@H](CO)NC(=O)[C@@H]2CCCN2C(=O)[C@H](Cc2ccccc2)NC(=O)[C@H](CC(=O)O)NC1=O [SEQ ID NO:13, CFLDFPSC-NH2] (H-CFLDFPSC-NH2; disulfide 1-8): 122

(P) CC(C)C[C@@H]1NC(=O)[C@H](Cc2ccccc2)NC(=O)[C@@H](N)CSSC[C@@H](C(N)=O)NC(=O)[C@@H]2CCCN2C(=O)[C@H](Cc2ccccc2)NC(=O)[C@H](CC(=O)O)NC1=O [SEQ ID NO:10, CFLDFPC-N2] (H-CFLDFPC-NH2; disulfide 1-7)
(Q) NC(=O)[C@@H]1CSSC[C@H](NC(=O)Cc2ccccc2)C(=O)N[C@@H](CC(=O)O)C(=O)N[C@@H](Cc2ccccc2)C(=O)N1 [SEQ ID NO:7, .phi.AcCDFC-NH2] (PhAc-CDFC-NH2; disulfide 1-4)
(R) NC(=O)[C@@H]1CSSC[C@H](NC(=O)[C@@H](N)Cc2ccccc2)C(=O)N[C@@H](CC(=O)O)C(=O)N[C@@H](Cc2ccccc2)C(=O)N1 [SEQ ID NO:25, FCDFC-NH2] (H-FCDFC-NH2; disulfide 2-5)
input: Falling order of Relative Potency, please. Could you list the labels in the order requested?
output: Q, P, R
(Q: 526, P: 253, R: 3)
